Reported folding enthalpy is given for each of the following sequences.
assay: folding enthalpy; higher = less favourable; fluorescence melt of hairpins on a sequencing array, two-state fit; details: sodium 0.088 M
Number only, in kcal/mol; omit the unit.

// known answers, use as guide
GATATCCGAAAGGAAATC (((.(((....))).))) = -27.2
GGTAACGAAAGTTGAACC ((((((....)))..))) = -14.2
GCTGGCGAAAGCCCGAGC ((((((....)))..))) = -14.3

Value lookup for folding enthalpy; key = CGGATGCGGAAACGCCCG (((..(((....))))))
-23.4

Item GTTGCTGGAAACAACAAC ((((.((....)).)))) has what recorded folding enthalpy?
-29.2

Quick one: folding enthalpy of GTCAATGCGAAAGCAGAC (((..(((....)))))) ?
-16.3
